assay: Impact of pH on solubility, buffered cosolvent system (plON pSOL Evolution); assay type: physicochemical; details: buffered cosolvent system; pH 4-5.8; read-out: solubility

- molecule: "OCCOc1cccc(CN2CC[C@@H](Nc3cccc4cnccc34)C2)c1 [Compound 2.039]"
  solubility: "> 20 mg/mL"
